Tested on: HCT-116 colon
Protocol Description: NCI tumour cell line growth inhibition, 48 h
Examples of compounds with documented GI50 follow.

[
  {
    "Compound": "COc1cc(C2CC(c3ccc(SC)cc3)=NN2C(C)=O)cc(OC)c1OC (centres undefined)",
    "GI50": "4280 nM"
  },
  {
    "Compound": "COc1ccc(-c2cc(C(=O)N3N=C(c4ccc(N)cc4)CC3c3ccc(Cl)cc3)c3ccccc3n2)cc1 (centres undefined)",
    "GI50": "1410 nM"
  },
  {
    "Compound": "COc1cc(/C=C/c2cc(/C=C/c3ccc(O)c(OC)c3)n(C(=O)Cc3ccccc3)n2)ccc1O",
    "GI50": "491 nM"
  },
  {
    "Compound": "CN(C)CCCNc1nc2ccccc2c2c(=O)c3cc(F)ccc3sc12",
    "GI50": "1510 nM"
  },
  {
    "Compound": "CN(c1ccc(C(=O)O)cc1)c1cc(O/N=[N+](\\[O-])N(C)C)c([N+](=O)[O-])cc1[N+](=O)[O-]",
    "GI50": "2720 nM"
  },
  {
    "Compound": "Nc1nc(SCc2ccccc2)nc2[nH]ncc12",
    "GI50": "13200 nM"
  },
  {
    "Compound": "Cn1cc(-c2csc(-c3c[nH]c4ccc(F)cc34)n2)c2cccnc21",
    "GI50": "729 nM"
  },
  {
    "Compound": "O=C1C(=O)/C(=C/c2ccccc2)CCCCCC/C1=C/c1ccccc1",
    "GI50": "1500 nM"
  },
  {
    "Compound": "O=[N+]([O-])c1cc([N+](=O)[O-])c(NN=C(c2ccc(O)cc2)c2ccc(O)cc2)cc1Cl",
    "GI50": "1230 nM"
  }
]

---

Tested on: HCT-116 colon
Protocol Description: NCI tumour cell line growth inhibition, 48 h; in the data active = GI50 below about 0.43 µM; inactive = the rest
Labels: active, inactive

[
  {
    "Molecule": "COc1cc2c(Oc3ccc4[nH]c(C)cc4c3F)ncnc2cc1OCCCN1CCCC1",
    "Label Value": "inactive"
  },
  {
    "Molecule": "Cc1ccc(N(CC(=O)Nc2ccc(S(=O)(=O)NC3CCN(C)CC3)cc2)S(=O)(=O)c2ccc(Cl)cc2)cc1",
    "Label Value": "inactive"
  },
  {
    "Molecule": "CC(=O)c1ccc(Nc2cc(-n3nnc4ccccc43)nc3ccccc23)cc1",
    "Label Value": "inactive"
  },
  {
    "Molecule": "CN(C)CCNc1c2c(c(NCCN(C)C)c3c(CN(C)C)c[nH]c13)C(=O)c1ccccc1C2=O",
    "Label Value": "inactive"
  },
  {
    "Molecule": "Cn1c([N+](=O)[O-])cnc1/C=C1\\Oc2ccc(Br)cc2C1=O",
    "Label Value": "active"
  },
  {
    "Molecule": "COc1cc(C=C2c3ccccc3C(=O)c3ccccc32)ccc1OCCCCOc1cc2c(cc1OC)C(=O)N1CCCC1C=N2 (configuration not stated)",
    "Label Value": "active"
  },
  {
    "Molecule": "COc1cc(/C=C/[N+](=O)[O-])c([N+](=O)[O-])cc1OC",
    "Label Value": "inactive"
  }
]

---

Examples of compounds with documented TGI follow.
System: LOX IMVI melanoma
Protocol Description: NCI tumour cell line growth inhibition, 48 h

[
  {
    "Compound": "CCOC(=O)C1=C(C#N)S(=O)(=O)c2c(oc(C)c2C)N1",
    "Unit Name": "µM",
    "Rel": ">",
    "TGI": 100
  },
  {
    "Compound": "CCOc1ccccc1/C=C(/C#N)C(N)=O",
    "Unit Name": "µM",
    "Rel": ">",
    "TGI": 100
  },
  {
    "Compound": "CCCCCCCCCCCCC(=O)CCCCC(=O)O",
    "Unit Name": "µM",
    "Rel": "=",
    "TGI": 46.6
  },
  {
    "Compound": "O=c1c(Nc2ccccc2)cn(CCOc2ccccc2)c(=O)n1CCOc1ccccc1",
    "Unit Name": "µM",
    "Rel": ">",
    "TGI": 100
  },
  {
    "Compound": "COc1cccc2c1C(=O)c1c(O)c3c(c(O)c1C2=O)C[C@@](O)(C(=O)CO)C[C@@H]3OC1CC(N(C)C)C(O)C(C)O1 (stereo partly specified)",
    "Unit Name": "µM",
    "Rel": "=",
    "TGI": 0.0102
  },
  {
    "Compound": "Nc1cnc(Nc2cccc3ccccc23)o1",
    "Unit Name": "µM",
    "Rel": ">",
    "TGI": 10
  },
  {
    "Compound": "CN(C)c1ccc(C2C(Cl)C(=O)N2NC(=O)c2c(Cl)c(Cl)c(Cl)c(Cl)c2-c2nc3ccccc3[nH]2)cc1 (stereo unspecified)",
    "Unit Name": "µM",
    "Rel": "=",
    "TGI": 30
  },
  {
    "Compound": "COc1ccc(P2(=S)OCCOP(=S)(c3ccc(OC)cc3)S2)cc1 (stereo unspecified)",
    "Unit Name": "µM",
    "Rel": "=",
    "TGI": 42.6
  },
  {
    "Compound": "CCn1cc(C(=O)O)c(=O)c2ccc(C)nc21",
    "Unit Name": "µM",
    "Rel": ">",
    "TGI": 100
  },
  {
    "Compound": "O=C1c2ccccc2C(=O)N1[C@@H](Cc1ccccc1)C(=O)n1cccc1CO",
    "Unit Name": "µM",
    "Rel": ">",
    "TGI": 100
  },
  {
    "Compound": "C#CC1(O)C(COP(=O)(O)OC(COCCCCCCCCCCCCCCCCCC)COP(=O)(O)OCC2OC(n3cc(C)c(=O)[nH]c3=O)CC2N=[N+]=[N-])OC(n2ccc(N)nc2=O)C1O (stereo unspecified)",
    "Unit Name": "µM",
    "Rel": "=",
    "TGI": 13
  },
  {
    "Compound": "CCCCc1ccc(NS(=O)(=O)c2cc3c4c(c2)CCN4C(=O)CC3)cc1",
    "Unit Name": "µM",
    "Rel": ">",
    "TGI": 100
  },
  {
    "Compound": "CCCCCCCCCCCC(=O)N(CCCCCCCCCCC(=O)O)CC(O)C(O)C(OC1OC(CO)C(O)C(O)C1O)C(O)CO (stereo unspecified)",
    "Unit Name": "µM",
    "Rel": ">",
    "TGI": 100
  },
  {
    "Compound": "COc1cc2c(c(OC)c1OC)CCNC2C1=C(O)COC1=O (stereo unspecified)",
    "Unit Name": "µM",
    "Rel": ">",
    "TGI": 100
  },
  {
    "Compound": "CCOC(=O)c1c(NNc2ccccc2)nc2ccccc2c1-c1ccccc1",
    "Unit Name": "µM",
    "Rel": "=",
    "TGI": 40.1
  },
  {
    "Compound": "CC(c1ccccc1)N1C(=O)CSC1=S (stereo unspecified)",
    "Unit Name": "µM",
    "Rel": "=",
    "TGI": 19.5
  },
  {
    "Compound": "c1ccc(COC2NCCN2Cc2ccccc2)cc1 (stereo unspecified)",
    "Unit Name": "µM",
    "Rel": ">",
    "TGI": 100
  },
  {
    "Compound": "CCOC(=O)c1c(Sc2ccc([N+](=O)[O-])cc2[N+](=O)[O-])nc2c3ccccc3ccn12",
    "Unit Name": "µM",
    "Rel": ">",
    "TGI": 100
  },
  {
    "Compound": "CO[C@H]1/C=C/[C@@](C)(O)/C=C/C(=O)O[C@H](C)[C@@H](C)CC/C=C/1C",
    "Unit Name": "µM",
    "Rel": "=",
    "TGI": 26
  },
  {
    "Compound": "Clc1ccc(-c2nc3ccc(Cl)cc3[nH]2)cc1",
    "Unit Name": "µM",
    "Rel": "=",
    "TGI": 69.5
  },
  {
    "Compound": "O=C(CCCBr)Nc1ccccc1C#C/C=C\\C#Cc1ccccc1C(F)(F)F",
    "Unit Name": "µM",
    "Rel": ">",
    "TGI": 50
  }
]
